# TARGET OR SYSTEM: Recombinant NAMPT protein (Homo sapiens, UniProt P43490)
# Sequence (P43490 whole entry): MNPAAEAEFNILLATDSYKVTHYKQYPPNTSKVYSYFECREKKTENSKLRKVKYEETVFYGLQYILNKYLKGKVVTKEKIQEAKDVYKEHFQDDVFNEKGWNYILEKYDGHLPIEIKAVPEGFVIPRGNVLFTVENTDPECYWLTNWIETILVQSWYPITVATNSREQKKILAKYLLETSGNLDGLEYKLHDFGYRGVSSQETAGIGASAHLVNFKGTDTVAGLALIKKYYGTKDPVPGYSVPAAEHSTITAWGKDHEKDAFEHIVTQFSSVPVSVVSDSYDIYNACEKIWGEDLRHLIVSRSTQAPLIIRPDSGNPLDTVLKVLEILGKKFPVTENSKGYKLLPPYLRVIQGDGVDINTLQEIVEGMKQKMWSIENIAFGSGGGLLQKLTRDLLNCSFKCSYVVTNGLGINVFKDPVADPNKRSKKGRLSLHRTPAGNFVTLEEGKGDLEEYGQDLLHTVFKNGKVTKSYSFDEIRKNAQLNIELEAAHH
# TEST DETAILS: NAMPT enzyme inhibition assay (BPS Bioscience NAMPT Inhibitor Screening Assay Kit)
# APPLIED CONDITIONS: 30 min pre-incubation, 2 h at 30° C., fluorescence
# Protocol: Recombinant NAMPT protein was added to each well of a black 96-well plate, and dilution buffer was added to a blank well instead of NAMPT protein. […] The NAMPT enzyme activity (%) was calculated by subtracting the measurement value of the blank well without NAMPT protein from the measurement value of all wells, and then taking the measurement value of the control well without the compound as 100%.
Provide the reported IC50 of each item.

Enquiry: Given the entry Nc1cccc(C#Cc2cc(NC(=O)NCCc3cccnc3)ccc2-c2ccncc2)c1 , what IC50 was observed with Recombinant NAMPT protein (Homo sapiens, UniProt P43490)?
Return: < 500 nM

Enquiry: Given the entry O=C(NCc1ccn2ccnc2c1)Nc1ccc(-c2ccncc2)c(C#Cc2ccc(F)cc2)c1 , what IC50 was observed with Recombinant NAMPT protein (Homo sapiens, UniProt P43490)?
Return: < 500 nM

Enquiry: Given the entry NC1CCN(C(=O)c2cccc(-c3ccc(NC(=O)NCCc4cccnc4)cc3C#Cc3ccc(C(=O)NCCN4CCCCC4)cc3)c2)C1 (stereo not shown) , what IC50 was observed with Recombinant NAMPT protein (Homo sapiens, UniProt P43490)?
Return: > 1000 nM

Enquiry: Given the entry O=C(NCCc1cccnc1)Nc1ccc(N2CCNCC2)c(C#Cc2ccc(F)cc2)c1 , what IC50 was observed with Recombinant NAMPT protein (Homo sapiens, UniProt P43490)?
Return: > 1000 nM

Enquiry: Given the entry NC1CCN(C(=O)c2ccc(C#Cc3cc(NC(=O)NCCc4cccnc4)ccc3-c3ccncc3)cc2)CC1 , what IC50 was observed with Recombinant NAMPT protein (Homo sapiens, UniProt P43490)?
Return: < 500 nM

Enquiry: Given the entry Cn1ccc(CS(=O)(=O)c2ccc(NC(=O)NCc3ccn4ccnc4c3)cc2C#Cc2ccc(F)cc2)n1 , what IC50 was observed with Recombinant NAMPT protein (Homo sapiens, UniProt P43490)?
Return: < 500 nM

Enquiry: Given the entry Cc1nc2cc(-c3ccc(NC(=O)NCc4ccn5ccnc5c4)cc3C#Cc3ccc(F)cc3)ccc2c(=O)n1CCN , what IC50 was observed with Recombinant NAMPT protein (Homo sapiens, UniProt P43490)?
Return: < 500 nM

Source: patent US20260250262A1
